- assayed-target: UniProt P49841
- Sequence (P49841 whole entry): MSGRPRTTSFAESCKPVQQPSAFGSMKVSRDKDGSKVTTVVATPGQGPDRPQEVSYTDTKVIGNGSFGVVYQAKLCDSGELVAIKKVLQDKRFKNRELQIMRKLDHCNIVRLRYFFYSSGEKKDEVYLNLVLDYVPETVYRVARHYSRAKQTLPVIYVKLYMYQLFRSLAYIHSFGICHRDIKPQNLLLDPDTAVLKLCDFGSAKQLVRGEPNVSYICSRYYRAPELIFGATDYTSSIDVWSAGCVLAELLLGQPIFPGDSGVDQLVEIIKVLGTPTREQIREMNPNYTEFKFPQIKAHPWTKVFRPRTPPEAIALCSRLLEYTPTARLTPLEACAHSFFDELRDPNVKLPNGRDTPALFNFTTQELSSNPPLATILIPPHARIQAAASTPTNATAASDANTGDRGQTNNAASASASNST
- assay-protocol: NanoBRET cellular target engagement assay, Nanoluc-GSK3B in HEK293 cells
- Assay type: cell-based
- Parameters: expressed in transfected cells
- condition-description: NanoBRET GSK3β IC50, HEK293 cells, tracer K-8, 2 hours, 37° C
recorded-endpoint: IC50 (µM)

> print(dat)
                                   compound  units.label  readout.value
1  CNC(C)c1cncc(NC(=O)c2c(N)ncn(-c3c(Cl)cc(Cl)cc3Cl)c2=O)c1 (single isomer, unassigned) [Example 12]           µM          0.141
2  COc1cc(Cl)c(-n2cnc(N)c(C(=O)Nc3cncc([C@@H]4COCCCN4)c3)c2=O)c(Cl)c1 (single isomer, unassigned)           µM          0.186
3  CNC(C)c1cncc(NC(=O)c2c(N)ncn(-c3c(Cl)cc(C#N)cc3Cl)c2=O)c1 (single isomer, unassigned)           µM           0.43
4  CN[C@@H](C)c1cncc(NC(=O)c2c(N)ncn(-c3c(Cl)cc(OC4CC4)cc3Cl)c2=O)c1 (single isomer, unassigned)           µM          0.462
5  COC[C@@H](N)c1cccc(NC(=O)c2c(N)ncn(-c3c(C)cc(C#N)cc3Cl)c2=O)c1 (atropisomer, axis not shown)           µM          0.257
6  CCOc1cc(Cl)c(-n2cnc(N)c(C(=O)Nc3cncc(C(COC)NC)c3)c2=O)c(Cl)c1 (single isomer, unassigned)           µM          0.318
7  COc1cc(Cl)c(-n2cnc(N)c(C(=O)Nc3cc(F)cc([C@H]4CCCCN4)c3)c2=O)c(Cl)c1 (single isomer, unassigned)           µM          0.148
8  CCOc1cc(C)c(-n2cnc(N)c(C(=O)Nc3cncc([C@H]4CCCCN4)c3)c2=O)c(C)c1           µM          0.201

----------
- assayed-target: GSK3A (Homo sapiens, UniProt P49840)
- Sequence (P49840 whole entry): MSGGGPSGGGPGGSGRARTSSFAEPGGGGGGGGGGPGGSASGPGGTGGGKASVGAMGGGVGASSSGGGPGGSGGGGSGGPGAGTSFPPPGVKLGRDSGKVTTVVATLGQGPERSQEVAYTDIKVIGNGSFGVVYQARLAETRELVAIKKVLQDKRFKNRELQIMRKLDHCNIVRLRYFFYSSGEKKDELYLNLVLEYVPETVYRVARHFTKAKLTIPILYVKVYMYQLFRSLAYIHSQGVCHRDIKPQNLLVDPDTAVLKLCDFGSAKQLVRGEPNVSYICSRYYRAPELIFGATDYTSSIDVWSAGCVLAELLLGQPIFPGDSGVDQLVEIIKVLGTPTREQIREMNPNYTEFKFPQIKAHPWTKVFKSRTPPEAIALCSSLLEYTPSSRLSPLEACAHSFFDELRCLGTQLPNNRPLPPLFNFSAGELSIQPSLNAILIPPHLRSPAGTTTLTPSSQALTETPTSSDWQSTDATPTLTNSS
- assay-protocol: NanoBRET cellular target engagement assay, Nanoluc-GSK3A in HEK293 cells
- condition-description: NanoBRET GSK3α IC50, HEK293 cells, tracer K-8, 2 hours, 37° C
pIC50: −log10 of the molar value.
recorded-endpoint: pIC50

> print(dat)
                                    compound  recorded.endpoint  readout.value
 1  CCCOc1cc(C)c(-n2cnc(N)c(C(=O)Nc3cncc(C(C)N)c3)c2=O)c(C)c1 (single isomer, unassigned) [Example 126]              pIC50           8.10
 2  COc1cc(C)c(-n2cnc(N)c(C(=O)N[C@@H]3CCC[C@H](CN)C3)c2=O)c(Cl)c1 (single isomer, unassigned) [Example 206]              pIC50           8.51
 3  CCNCc1cncc(NC(=O)c2c(N)ncn(-c3c(Cl)cc(CC(F)(F)F)cc3Cl)c2=O)c1 [Example 202]              pIC50           8.23
 4  Cc1cc(C(F)CF)cc(C)c1-n1cnc(N)c(C(=O)Nc2cncc([C@H]3CCCCN3)c2)c1=O (single isomer, unassigned) [Example 111]              pIC50           8.70
 5  COc1cc(Cl)c(-n2cnc(N)c(C(=O)Nc3cnnc(C4CCCCN4)c3)c2=O)c(Cl)c1 (single isomer, unassigned) [Example 172]              pIC50           8.46
 6  COc1cc(Cl)c(-n2cnc(N)c(C(=O)Nc3cncc([C@@H]4CCCCN4)c3)c2=O)c(Cl)c1 [Example 34]              pIC50           8.43
 7  CN[C@H](C)c1cccc(NC(=O)c2c(N)ncn(-c3c(C)cccc3Cl)c2=O)c1 (atropisomer, axis not shown) [Example 3]              pIC50           8.30
 8  CNC(COC)c1cncc(NC(=O)c2c(N)ncn(-c3c(Cl)cc(C(F)(F)F)cc3Cl)c2=O)c1 (single isomer, unassigned) [Example 121]              pIC50           8.47
 9  COc1cc(Cl)c(-n2cnc(N)c(C(=O)Nc3cncc(C4(N)CCOCC4)c3)c2=O)c(Cl)c1 [Example 182]              pIC50           8.09
10  CCOc1cc(C)c(-n2cnc(N)c(C(=O)Nc3cccc([C@H](N)COC)c3)c2=O)c(Cl)c1 (atropisomer, axis not shown) [Example 72]              pIC50           8.29
11  CCNCc1cncc(NC(=O)c2c(N)ncn(-c3c(Cl)cc(OC)cc3Cl)c2=O)c1 [Example 17]              pIC50           8.42
12  COCC[C@@H](N)c1cncc(NC(=O)c2c(N)ncn(-c3c(Cl)cccc3Cl)c2=O)c1 (single isomer, unassigned) [Example 197]              pIC50           8.14
13  C[C@@H](N)c1cncc(NC(=O)c2c(N)ncn(-c3c(Cl)cc(C(F)F)cc3Cl)c2=O)c1 (single isomer, unassigned) [Example 57]              pIC50           8.27
